Where do the numbers come from? From ChEMBL document CHEMBL1133754.

- Tested on: HFF
- test summary: Compound was tested for antiviral activity against wild-type Towne strain of HCMV in yield reduction assay using HFF cells
- Format: functional, cell-based
- assay context: Homo sapiens
pIC50: −log10 of the molar value.

molecule | pIC50
Nc1nc2c(ncn2COC(CO)CO)c(=O)[nH]1 [GANCICLOVIR] | 5.35

* * *

- test summary: Compound was tested for inhibition of MOLT 4 cells.
- Assay type: functional, cell-based, Homo sapiens
pIC50: −log10 of the molar value.
property label: pIC50

molecule | property label | observed result
O[C@@H]1COC(n2c(Br)nc3cc(Cl)c(Cl)cc32)[C@@H]1O (stereo partly specified) | pIC50 | 4.33
CC(C)Nc1nc2c(Br)c(Cl)c(Cl)cc2n1C1OC[C@@H](O)[C@H]1O (stereo partly specified) | pIC50 | 4.89
CC(C)Nc1nc2cc(Cl)c(Cl)cc2n1C1OC[C@@H](O)[C@H]1O (stereo partly specified) | pIC50 | 4.08
O[C@@H]1C(n2c(NC3CC3)nc3cc(Cl)c(Cl)cc32)OC[C@@H]1O (stereo partly specified) | pIC50 | 4.37
O[C@@H]1COC(n2c(NC3CC3)nc3cc(Cl)c(Cl)cc32)[C@@H]1O (stereo partly specified) | pIC50 | 3.88
CC(C)Nc1nc2cc(Cl)c(Cl)cc2n1C1OC[C@H](O)[C@@H]1O (stereo partly specified) | pIC50 | 4.82
